TESTED TARGET: Gastrin/cholecystokinin type B receptor (Homo sapiens, UniProt P32239)
Sequence (P32239 whole entry): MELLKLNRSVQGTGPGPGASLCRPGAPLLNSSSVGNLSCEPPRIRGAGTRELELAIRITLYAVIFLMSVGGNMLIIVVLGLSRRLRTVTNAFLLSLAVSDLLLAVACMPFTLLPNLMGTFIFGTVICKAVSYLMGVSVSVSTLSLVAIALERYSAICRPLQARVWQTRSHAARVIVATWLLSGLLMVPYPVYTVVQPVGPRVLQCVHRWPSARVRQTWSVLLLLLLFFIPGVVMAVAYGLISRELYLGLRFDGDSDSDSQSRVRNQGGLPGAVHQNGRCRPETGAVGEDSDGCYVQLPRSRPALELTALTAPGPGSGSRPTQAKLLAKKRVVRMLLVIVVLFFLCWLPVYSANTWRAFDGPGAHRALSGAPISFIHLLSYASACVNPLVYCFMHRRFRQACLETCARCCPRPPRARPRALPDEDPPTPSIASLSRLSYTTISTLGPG
METHOD SUMMARY: Agonist activity at human CCK2R expressed in human 1321N1 cells assessed as IP1 accumulation after 1 hr by HTRF assay
Numbered stars: 1 amine (or outer) side, 2 acyl side, 3 side chain; on linkers, the order of the positions; unused ones are H or OH. Square brackets hold non-standard residues; d marks the D form. Peptide text beside a SMILES is read from it. * marks the point of attachment. sY = N[C@@H](Cc1ccc(OS(=O)(=O)O)cc1)C(=O)O; C18 diacid = O=C(O)CCCCCCCCCCCCCCCCC(=O)*; NMe1Nal = CN[C@@H](Cc1cccc2ccccc12)C(=O)O; γGlu = O=C(O)[C@H](CCC(=O)[*:2])N[*:1]; NMeD = CN[C@@H](CC(=O)O)C(=O)O; Nle = CCCC[C@H](N)C(=O)O; AEEA = NCCOCCOCC(=O)O
OUTCOME MEASURE: pEC50
Scale: pEC50 equals -log10([C]), with [C] in mol/L.

Sample records with pEC50:
1) CCCC[C@H](NC(=O)[C@H](Cc1ccc(O)cc1)NC(=O)[C@H](CC(=O)O)NC(=O)COCCOCCNC(=O)COCCOCCNC(=O)CC[C@H](NC(=O)CCCCCCCCCCCCCCCCC(=O)O)C(=O)O)C(=O)NCC(=O)N[C@@H](Cc1c[nH]c2ccccc12)C(=O)N[C@@H](CCCCNC(=O)Nc1ccccc1C)C(=O)N[C@@H](CC(=O)O)C(=O)N(C)[C@@H](Cc1ccccc1)C(N)=O: 8.30
2) CCCC[C@H](NC(=O)[C@H](Cc1c[nH]c2ccccc12)NC(=O)CNC(=O)[C@H](CC(C)C)NC(=O)[C@H](Cc1ccc(OS(=O)(=O)O)cc1)NC(=O)[C@H](CC(=O)O)NC(=O)COCCOCCNC(=O)COCCOCCNC(=O)CC[C@H](NC(=O)CCCCCCCCCCCCCCCCC(=O)O)C(=O)O)C(=O)N(C)[C@@H](CC(=O)O)C(=O)N(C)[C@@H](Cc1cccc2ccccc12)C(N)=O ({C18 diacid-γGlu-AEEA-AEEA}-D[sY]LGW[Nle][NMeD][NMe1Nal]-NH2): 7.78

As a next step, examine the compound that follows.
# input Find the recorded pEC50 belonging to `CCCC[C@H](NC(=O)[C@H](Cc1c[nH]c2ccccc12)NC(=O)CNC(=O)[C@H](CC(C)C)NC(=O)[C@H](Cc1ccc(OS(=O)(=O)O)cc1)NC(=O)[C@H](CC(=O)O)NC(=O)COCCOCCNC(=O)COCCOCCNC(=O)CC[C@H](NC(=O)CCCCCCCCCCCCCCCCC(=O)O)C(=O)O)C(=O)N[C@@H](CC(=O)O)C(=O)N[C@@H](Cc1ccccc1)C(N)=O` and report it.
# output 9.30

// data source = ChEMBL document CHEMBL4368907
